B1: library; numbered along this chain (parent)
chain: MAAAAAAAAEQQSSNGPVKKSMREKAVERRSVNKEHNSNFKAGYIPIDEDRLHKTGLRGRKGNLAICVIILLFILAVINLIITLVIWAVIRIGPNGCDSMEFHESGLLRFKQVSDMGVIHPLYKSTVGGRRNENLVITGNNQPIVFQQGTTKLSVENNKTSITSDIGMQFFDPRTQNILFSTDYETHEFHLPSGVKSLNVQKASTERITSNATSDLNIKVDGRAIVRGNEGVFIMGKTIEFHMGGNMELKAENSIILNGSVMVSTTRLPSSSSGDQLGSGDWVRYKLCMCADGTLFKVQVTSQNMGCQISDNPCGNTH

- Variants of: B1
- methodDescription: SGCB cell-surface expression functional score (HA stain, bin4 vs bin1, normalised to synonymous) (log10 ratio); higher = more cell-surface SGCB (functional)
Hi all, reminder that labels come from SGCB cell-surface expression functional score (log10), split as low bracket: < -0.3; middle bracket: ≥ -0.3 and < 0.1; high bracket: ≥ 0.1

>  <variantDescriptor>
A5T

>  <category>
high bracket

$$$$
>  <variantDescriptor>
I178G

>  <category>
low bracket

$$$$
>  <variantDescriptor>
E35A

>  <category>
high bracket

$$$$
>  <variantDescriptor>
Y123V

>  <category>
middle bracket

$$$$
>  <variantDescriptor>
N140L

>  <category>
low bracket

$$$$
>  <variantDescriptor>
V155D

>  <category>
low bracket

$$$$
>  <variantDescriptor>
A212I

>  <category>
high bracket

$$$$
>  <variantDescriptor>
H190Y

>  <category>
high bracket

$$$$
>  <variantDescriptor>
S38K

>  <category>
high bracket

$$$$
>  <variantDescriptor>
T265R

>  <category>
high bracket

$$$$
>  <variantDescriptor>
Q308F

>  <category>
low bracket

$$$$
>  <variantDescriptor>
T138L

>  <category>
high bracket

$$$$
>  <variantDescriptor>
L179N

>  <category>
low bracket

$$$$
>  <variantDescriptor>
V283H

>  <category>
middle bracket

$$$$
>  <variantDescriptor>
G106Y

>  <category>
low bracket

$$$$
>  <variantDescriptor>
L191E

>  <category>
low bracket

$$$$
>  <variantDescriptor>
I90K

>  <category>
high bracket

$$$$
>  <variantDescriptor>
L135D

>  <category>
low bracket

$$$$
>  <variantDescriptor>
N316H

>  <category>
high bracket

$$$$
>  <variantDescriptor>
R174P

>  <category>
low bracket

$$$$
>  <variantDescriptor>
S31E

>  <category>
high bracket

$$$$
>  <variantDescriptor>
C67A

>  <category>
high bracket

$$$$
>  <variantDescriptor>
G245Y

>  <category>
high bracket

$$$$
>  <variantDescriptor>
H190W

>  <category>
low bracket

$$$$
>  <variantDescriptor>
S271M

>  <category>
middle bracket

$$$$
>  <variantDescriptor>
N37C

>  <category>
high bracket

$$$$
>  <variantDescriptor>
T83I

>  <category>
middle bracket

$$$$
>  <variantDescriptor>
S125A

>  <category>
middle bracket

$$$$
>  <variantDescriptor>
T205C

>  <category>
middle bracket

$$$$
>  <variantDescriptor>
R284P

>  <category>
low bracket

$$$$
>  <variantDescriptor>
D50S

>  <category>
high bracket

$$$$
>  <variantDescriptor>
H120Q

>  <category>
middle bracket

$$$$
>  <variantDescriptor>
H242E

>  <category>
high bracket

$$$$
>  <variantDescriptor>
M22Y

>  <category>
middle bracket

$$$$
>  <variantDescriptor>
S273T

>  <category>
low bracket

$$$$
>  <variantDescriptor>
S14W

>  <category>
middle bracket

$$$$
>  <variantDescriptor>
I92F

>  <category>
low bracket

$$$$
>  <variantDescriptor>
G129Q

>  <category>
low bracket

$$$$
>  <variantDescriptor>
I119E

>  <category>
low bracket

$$$$
>  <variantDescriptor>
A7F

>  <category>
middle bracket

$$$$
>  <variantDescriptor>
S260E

>  <category>
middle bracket

$$$$
>  <variantDescriptor>
N312S

>  <category>
middle bracket

$$$$
>  <variantDescriptor>
L295M

>  <category>
low bracket

$$$$
>  <variantDescriptor>
R207D

>  <category>
low bracket

$$$$
>  <variantDescriptor>
S273W

>  <category>
middle bracket

$$$$
>  <variantDescriptor>
M168T

>  <category>
low bracket

$$$$
>  <variantDescriptor>
I74C

>  <category>
middle bracket

$$$$
>  <variantDescriptor>
A26W

>  <category>
high bracket

$$$$
>  <variantDescriptor>
I47H

>  <category>
high bracket

$$$$
>  <variantDescriptor>
D48Q

>  <category>
low bracket

$$$$
>  <variantDescriptor>
L107R

>  <category>
low bracket

$$$$
>  <variantDescriptor>
A224Y

>  <category>
low bracket

$$$$
>  <variantDescriptor>
M22R

>  <category>
middle bracket

$$$$
>  <variantDescriptor>
Q303H

>  <category>
middle bracket

$$$$
>  <variantDescriptor>
I137S

>  <category>
low bracket

$$$$
>  <variantDescriptor>
A2E

>  <category>
low bracket

$$$$
>  <variantDescriptor>
L257W

>  <category>
high bracket

$$$$
>  <variantDescriptor>
N15E

>  <category>
high bracket

$$$$
>  <variantDescriptor>
T209V

>  <category>
high bracket

$$$$
>  <variantDescriptor>
I225W

>  <category>
middle bracket

$$$$
>  <variantDescriptor>
L80Q

>  <category>
middle bracket

$$$$
>  <variantDescriptor>
L277D

>  <category>
middle bracket

$$$$
>  <variantDescriptor>
C97E

>  <category>
low bracket

$$$$
>  <variantDescriptor>
F102M

>  <category>
low bracket

$$$$
>  <variantDescriptor>
S125C

>  <category>
high bracket

$$$$
>  <variantDescriptor>
M289S

>  <category>
low bracket

$$$$
>  <variantDescriptor>
N229L

>  <category>
high bracket

$$$$
>  <variantDescriptor>
Y123H

>  <category>
low bracket

$$$$
>  <variantDescriptor>
L295K

>  <category>
middle bracket

$$$$
>  <variantDescriptor>
K196R

>  <category>
high bracket

$$$$
>  <variantDescriptor>
L135V

>  <category>
low bracket

$$$$
>  <variantDescriptor>
L80K

>  <category>
middle bracket

$$$$
>  <variantDescriptor>
N304D

>  <category>
low bracket

$$$$
>  <variantDescriptor>
M243L

>  <category>
high bracket

$$$$
>  <variantDescriptor>
P269R

>  <category>
high bracket

$$$$
>  <variantDescriptor>
T294V

>  <category>
high bracket

$$$$
>  <variantDescriptor>
K54F

>  <category>
middle bracket

$$$$
>  <variantDescriptor>
E188I

>  <category>
low bracket

$$$$
>  <variantDescriptor>
H120P

>  <category>
low bracket

$$$$
>  <variantDescriptor>
G194H

>  <category>
high bracket

$$$$
>  <variantDescriptor>
G117M

>  <category>
low bracket

$$$$
>  <variantDescriptor>
G278R

>  <category>
middle bracket

$$$$
>  <variantDescriptor>
E230Q

>  <category>
high bracket

$$$$
>  <variantDescriptor>
G280L

>  <category>
middle bracket

$$$$
>  <variantDescriptor>
S302K

>  <category>
high bracket

$$$$
>  <variantDescriptor>
L268D

>  <category>
high bracket

$$$$
>  <variantDescriptor>
I47Y

>  <category>
high bracket

$$$$
>  <variantDescriptor>
V220K

>  <category>
middle bracket

$$$$
